From: ChEMBL document CHEMBL3988442

# maps each entry to its Percent Effect
# Tested on: Wolbachia pipientis
# method-description: Anti-Wolbachia Cell-Based Screen
# Type: functional
# Design: scale not given: in the data most compounds retested in dose-response had high values
# assay-context: 5 µM
The whole screen tested about 48,000 compounds, of which about 13,000 (27%) showed an effect of 50% or more. The list shows a part of the results.

molecule	Percent Effect
CCN(CC(=O)NC(C)C)S(=O)(=O)N1CCCCCC1	9.147%
CCOc1nnc(CN(Cc2ccccc2)CC(O)c2ccco2)s1 (stereo unspecified)	2.067%
CN(CCc1cn[nH]c1)C(=O)C1CC(=O)N(Cc2cccnc2)C1 (stereo unspecified)	1.356%
CC(C)CCC(=O)N1CCN(c2ncnc3nc(N)ccc23)CC1	-4.213%
CCN(CC(=O)Nc1cc(C(C)(C)C)no1)Cc1ccc(Cl)s1	1.082%
CCOc1nnc(CN(CC)CC(=O)Nc2c(F)cccc2F)s1	97.11%

====

# Tested on: Wolbachia pipientis
# method-description: Anti-Wolbachia Cell-Based Screen
# Type: functional
# Design: scale not given: in the data most compounds retested in dose-response had high values
# assay-context: 5 µM
About 13,000 (27%) of roughly 48,000 compounds showed an effect of 50% or more. The list shows a part of the results.
endpoint-label: Percent Effect (%)

molecule	system-tested	endpoint-label	experimental-value
OCCc1cc(CC2(NCc3ccc(C(F)(F)F)cc3)COC2)no1	Wolbachia pipientis	Percent Effect	1.711
CCSCc1ccnc(NC(=O)C2CCOC2)c1 (stereo unspecified)	Wolbachia pipientis	Percent Effect	20.8
O=C(NS(=O)(=O)c1ccccc1Cl)c1cccc2c1OCCO2	Wolbachia pipientis	Percent Effect	-4.478
N#Cc1cccnc1N[C@@H]1c2ccccc2C[C@@H]1O	Wolbachia pipientis	Percent Effect	4.876
Cc1cc(NC(=O)NCc2ccccc2OC(F)F)n(C)n1	Wolbachia pipientis	Percent Effect	8.208
CCC(O)(CNCc1cc[nH]n1)c1ccc(Br)cc1 (stereo unspecified)	Wolbachia pipientis	Percent Effect	7.461

====

# Tested on: Wolbachia pipientis
# method-description: Anti-Wolbachia Cell-Based Screen
# Assay type: functional
# Set-up: scale not given: in the data most compounds retested in dose-response had high values
# assay-context: 5 µM
About 13,000 (27%) of roughly 48,000 compounds showed an effect of 50% or more. The list shows a part of the results.
endpoint-label: Percent Effect (%)

molecule	endpoint-label	unit-name	experimental-value
COc1ccccc1C(=O)N1CCC(Oc2ccc(C#N)cn2)CC1	Percent Effect	%	-9.351
Fc1ccccc1CN1C[C@H](OCC2CCOCC2)[C@H]2OCCC[C@H]21.O=C(O)C(F)(F)F	Percent Effect	%	-9.213
CN(C)C(=O)CO[C@@H]1CN(Cc2ccccc2F)[C@@H]2CCCO[C@@H]21.O=C(O)C(F)(F)F	Percent Effect	%	-3.753
COc1cc(CC(O)CC#N)c(OC)c2c1OCO2 (centres undefined)	Percent Effect	%	-11.73
COC[C@@H]1CC[C@H]2[C@H](CCN2S(=O)(=O)c2cccc(C)c2)O1	Percent Effect	%	4.659
O=C(NCCSCc1ccc(Br)s1)C1CCCN(C(=O)c2cccs2)C1 (centres undefined)	Percent Effect	%	-11.8
CS(=O)(=O)N1CCCCC12CCCN(Cc1nccs1)C2.O=C(O)C(F)(F)F (centres undefined)	Percent Effect	%	-3.648
CCO[C@@H]1CN(Cc2scnc2C)[C@@H]2CCCO[C@@H]21.O=C(O)C(F)(F)F.O=C(O)C(F)(F)F	Percent Effect	%	-1.893
COc1ccc(-c2cn3c(n2)CO[C@@H](CNCc2nccn2C)C3)cc1	Percent Effect	%	1.884
